protocol_notes: PAMPA (parallel artificial membrane permeability assay)
Type: in vitro ADME
run_conditions: PAMPA; membrane permeation rate (Pe); 50 mM MOPSO buffer pH 6.5 with 5.0% glycocholic acid, 37° C., 18 hours; read-out: iPAMPA Pe
Starred links: 1 amine or outer side, 2 acyl side, 3 side chain; linkers in the order of their positions; H or OH if unused. Positions of bridges follow the written chain, without caps; N, C: chain ends. Non-standard residues stand in square brackets, D forms with d. Residues, ends and D or L forms follow the SMILES beside them. *: point of attachment. NMeF = CN[C@@H](Cc1ccccc1)C(=O)O; NMeβAla = CN(CCC(=O)[*:2])[*:1]; NMeL = CN[C@@H](CC(C)C)C(=O)O; NMeA = CN[C@@H](C)C(=O)O; Piperidide = C1CCN(*)CC1; β3hA = C[C@H](N)CC(=O)O; Sar = CNCC(=O)O; tBu = CC(C)(C)*
Measured Papp at 18 hours, 50 µM, listed per entry.
Answer with the value and then the unit.

| compound | Papp at 18 hours, 50 µM |
| --- | --- |
| CC(C)C[C@H]1C(=O)NCC(=O)N[C@@H](C)CC(=O)N(C)CCC(=O)N[C@@H]([C@@H](C)O)C(=O)N(C)[C@@H](C)C(=O)N[C@@H](COC(C)(C)C)C(=O)N(C)[C@@H](Cc2ccccc2)C(=O)N1C [DP-794] (cyclo(G[β3hA][NMeβAla]T[NMeA]S(tBu)[NMeF][NMeL])) | 3.7 ×10⁻⁶ cm/s |
| CC[C@H](C)[C@H](NC(=O)[C@H](CC(C)C)N(C)C(=O)[C@H](Cc1ccccc1)NC(=O)[C@H](Cc1ccccc1)N(C)C(=O)[C@@H]1CC(=O)N(C)[C@@H](C)C(=O)N[C@@H](C(C)C)C(=O)N[C@@H](CC(C)C)C(=O)N(C)[C@@H](Cc2ccccc2)C(=O)N[C@@H](CC(C)C)C(=O)N[C@@H]([C@@H](C)O)C(=O)N1)C(=O)N1CCCCC1 [DP-921] ([NMeA]VL[NMeF]LTD[NMeF]F[NMeL]I-Piperidide; lactam N-7) | 0.34 ×10⁻⁶ cm/s |

Next:
According to the records, this compound CC(C)C[C@H]1C(=O)N(C)[C@@H](CC(C)C)C(=O)N[C@H](C(=O)N(C)[C@@H](Cc2ccccc2)C(=O)N[C@@H](C)C(=O)N2CCCCC2)CC(=O)N[C@H](C(C)C)C(=O)N(C)[C@@H](C)C(=O)N(C)[C@@H](Cc2ccccc2)C(=O)N(C)[C@@H](CC(C)C)C(=O)N[C@@H](Cc2c[nH]cn2)C(=O)N(C)CC(=O)N[C@@H](C(C)C)C(=O)N1C [DP-585] ([dV][NMeA][NMeF][NMeL]H[Sar]V[NMeL][NMeL]D[NMeF]A-Piperidide; lactam N-10) displays Papp at 18 hours, 50 µM of 15 ×10⁻⁶ cm/s

---

protocol_notes: Metabolic stability in human hepatic microsome
Format: in vitro ADME
run_conditions: microsomes, pH 7.4; human hepatic microsome, NADPH(+); read-out: CL NADPH(+)
Positions of bridges follow the written chain, without caps; N, C: chain ends. Non-standard residues stand in square brackets, D forms with d. Residues, ends and D or L forms follow the SMILES beside them. *: point of attachment. NMeF = CN[C@@H](Cc1ccccc1)C(=O)O; NMeI = CC[C@H](C)[C@H](NC)C(=O)O; NMeL = CN[C@@H](CC(C)C)C(=O)O; NMeV = CN[C@H](C(=O)O)C(C)C; NMeA = CN[C@@H](C)C(=O)O; Piperidide = C1CCN(*)CC1; dNMeA = CN[C@H](C)C(=O)O; β3hA = C[C@H](N)CC(=O)O; Sar = CNCC(=O)O; tBu = CC(C)(C)*
Please assign label 0 whenever microsomal CLint at 1 uM is at or above 20 µL/min/mg, and label 1 whenever it is below.

Examples with answers:
| compound | qualitative_label |
| --- | --- |
| CC[C@H](C)[C@H]1C(=O)N(C)[C@@H](Cc2ccccc2)C(=O)N(C)[C@@H](CC(C)C)C(=O)N[C@H](C(=O)N2CCCCC2)CC(=O)N(C)[C@H](C)C(=O)N(C)[C@@H](CC(C)C)C(=O)N[C@@H]([C@@H](C)O)C(=O)N(C)[C@@H](C)C(=O)N[C@@H](C)C(=O)N(C)[C@@H](Cc2ccccc2)C(=O)N[C@@H](CC(C)C)C(=O)N1C [DP-244] ([dNMeA][NMeL]T[NMeA]A[NMeF]L[NMeI][NMeF][NMeL]D-Piperidide; lactam N-11) | label 1 |
| CC(C)C[C@H]1C(=O)N(C)[C@@H](C)C(=O)N(C)[C@@H](Cc2ccccc2)C(=O)N[C@@H]([C@@H](C)O)C(=O)N(C)[C@@H](C)C(=O)N(C)[C@@H](Cc2ccccc2)C(=O)N(C)[C@@H](C)C(=O)N[C@H](C(=O)N(C)[C@@H](Cc2ccccc2)C(=O)N[C@@H](C)C(=O)N2CCCCC2)CC(=O)N(C)[C@@H](C)C(=O)N[C@@H](C)C(=O)N(C)[C@@H](C)C(=O)N1C [DP-445] ([NMeA]A[NMeA][NMeL][NMeA][NMeF]T[NMeA][NMeF][NMeA]D[NMeF]A-Piperidide; lactam N-11) | label 1 |
| CC(C)C[C@H]1C(=O)N(C)[C@@H](C)C(=O)N(C)[C@@H](Cc2ccccc2)C(=O)N[C@@H]([C@@H](C)O)C(=O)N(C)CC(=O)N(C)[C@@H](Cc2ccccc2)C(=O)N(C)[C@@H](CC(C)C)C(=O)N[C@@H](C)C(=O)N[C@H](C(=O)N2CCCCC2)CC(=O)N(C)[C@@H](C)C(=O)N(C)[C@@H](C)C(=O)N1C [DP-482] ([NMeA][NMeA][NMeL][NMeA][NMeF]T[Sar][NMeF][NMeL]AD-Piperidide; lactam N-11) | label 1 |
| CC[C@H](C)[C@H]1C(=O)N[C@H](C(=O)N2CCCCC2)CC(=O)N[C@H](C(C)C)C(=O)N(C)[C@@H](CC(C)C)C(=O)N(C)[C@@H](Cc2ccccc2)C(=O)N(C)[C@@H](C)C(=O)N[C@@H]([C@@H](C)O)C(=O)N(C)CC(=O)N(C)[C@@H](CC(C)C)C(=O)N[C@@H](COC(C)(C)C)C(=O)N1C [DP-257] ([dV][NMeL][NMeF][NMeA]T[Sar][NMeL]S(tBu)[NMeI]D-Piperidide; lactam N-10) | label 0 |
| CC(C)C[C@@H]1NC(=O)[C@H](Cc2ccccc2)N(C)C(=O)[C@H](C)NC(=O)[C@H](C)N(C)C(=O)C[C@@H](C(=O)N2CCCCC2)NC(=O)[C@H]([C@@H](C)O)NC(=O)[C@H](C)N(C)C(=O)[C@H](C)N(C)C(=O)[C@H](Cc2ccccc2)NC(=O)CN(C)C(=O)[C@H](C(C)C)N(C)C(=O)[C@H](C)N(C)C1=O [DP-470] ([NMeA]A[NMeF]L[NMeA][NMeV][Sar]F[NMeA][NMeA]TD-Piperidide; lactam N-12) | label 1 |
| CC(C)C[C@H]1C(=O)N(C)[C@@H](CC(C)C)C(=O)N[C@H](C(=O)N(C)[C@@H](Cc2ccccc2)C(=O)N[C@@H](C)C(=O)N2CCCCC2)CC(=O)N(C)[C@@H](C)C(=O)N(C)[C@@H](Cc2ccccc2)C(=O)N(C)[C@@H](CC(C)C)C(=O)N[C@@H]([C@@H](C)O)C(=O)N(C)[C@@H](C)C(=O)N[C@@H](C(C)C)C(=O)N1C [DP-199] ([NMeA][NMeF][NMeL]T[NMeA]V[NMeL][NMeL]D[NMeF]A-Piperidide; lactam N-9) | label 0 |
| CC[C@H](C)[C@H]1C(=O)N(C)[C@@H](C)C(=O)N(C)[C@@H](CC(C)C)C(=O)N[C@@H](COC(C)(C)C)C(=O)N(C)[C@@H](CC(C)C)C(=O)N[C@@H](C)CC(=O)N(C)[C@@H](C)C(=O)N(C)[C@@H](Cc2ccccc2)C(=O)N[C@@H](C)C(=O)N(C)[C@@H](CC(C)C)C(=O)N[C@@H]([C@@H](C)O)C(=O)N1C [DP-816] (cyclo(A[NMeL]T[NMeI][NMeA][NMeL]S(tBu)[NMeL][β3hA][NMeA][NMeF])) | label 0 |

Attention now turns to another entry.
Lookup: Field: below-cutoff. Rule: recorded microsomal CLint at 1 uM strictly less than 20 µL/min/mg. Subject: CC(C)C[C@H]1C(=O)N[C@@H](Cc2ccccc2)C(=O)N(C)[C@@H](C)C(=O)N(C)[C@@H](C)C(=O)N[C@@H]([C@@H](C)O)C(=O)N(C)CC(=O)N(C)[C@@H](Cc2ccccc2)C(=O)N[C@H](C(=O)N(C)[C@@H](Cc2ccccc2)C(=O)N[C@@H](C)C(=O)N2CCCCC2)CC(=O)N(C)[C@H](C)C(=O)N(C)[C@@H](C)C(=O)N[C@@H](C)C(=O)N1C [DP-363] ([dNMeA][NMeA]A[NMeL]F[NMeA][NMeA]T[Sar][NMeF]D[NMeF]A-Piperidide; lactam N-11)
Found: label 1
